# pKi listing for each entry below
Target sequence: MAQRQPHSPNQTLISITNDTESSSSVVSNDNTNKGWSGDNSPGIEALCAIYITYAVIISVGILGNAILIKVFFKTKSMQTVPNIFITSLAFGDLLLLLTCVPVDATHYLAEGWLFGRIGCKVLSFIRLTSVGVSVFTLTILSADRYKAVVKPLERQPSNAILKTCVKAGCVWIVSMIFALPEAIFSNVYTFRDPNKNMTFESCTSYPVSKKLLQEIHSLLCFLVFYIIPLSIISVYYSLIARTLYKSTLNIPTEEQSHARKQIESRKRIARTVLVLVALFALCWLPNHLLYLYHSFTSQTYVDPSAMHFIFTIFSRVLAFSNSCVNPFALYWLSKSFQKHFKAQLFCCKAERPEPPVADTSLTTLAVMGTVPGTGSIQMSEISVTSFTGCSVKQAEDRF
pKi: −log10 of the molar value.
READOUT_NAME: pKi

[[record]]
compound = "CCCC[C@H](NC(=O)[C@H](Cc1ccccc1)NC(=O)[C@H](Cc1cnc[nH]1)NC(=O)C[C@H](NC(=O)[C@@H](NC(=O)[C@H](C)NC(=O)[C@H](Cc1c[nH]c2ccccc12)NC(=O)[C@H](CCC(N)=O)NC(=O)[C@H](N)Cc1ccc(O)cc1)C(C)C)c1cccc(Cl)c1)C(N)=O [NSC_0]"
readout_name = "pKi"
numeric_value = 6.97

[[record]]
compound = "CCCC[C@H](NC(=O)[C@H](Cc1ccccc1)NC(=O)[C@H](Cc1cnc[nH]1)NC(=O)C[C@H](NC(=O)[C@@H](NC(=O)[C@H](C)NC(=O)[C@H](Cc1c[nH]c2ccccc12)NC(=O)[C@H](CCC(N)=O)NC(=O)[C@H](N)Cc1ccc(O)cc1)C(C)C)c1ccc(Cl)cc1)C(N)=O [NSC_0]"
readout_name = "pKi"
numeric_value = 6.11


---

Measured log10(Ki) (Gastrin-releasing peptide receptor (Homo sapiens) (UniProt P30550))
READOUT_NAME: log10(Ki) (log10 of the value in nM)

[[record]]
structure_as_smiles = "CC(C)[C@H](NC(=O)[C@H](C)NC(=O)[C@H](Cc1c[nH]c2ccccc12)NC(=O)[C@H](CCC(N)=O)NC(=O)[C@H](N)Cc1ccc(O)cc1)C(=O)NCCC(=O)N[C@@H](Cc1cnc[nH]1)C(=O)N[C@@H](Cc1ccccc1)C(=O)NC[C@H](N)C(N)=O"
numeric_value = 1.93

[[record]]
structure_as_smiles = "CCCC[C@H](NC(=O)[C@H](Cc1ccccc1)NC(=O)[C@H](Cc1cnc[nH]1)NC(=O)C[C@H](NC(=O)[C@@H](NC(=O)[C@H](C)NC(=O)[C@H](Cc1c[nH]c2ccccc12)NC(=O)[C@H](CCC(N)=O)NC(=O)[C@H](N)Cc1ccc(O)cc1)C(C)C)c1ccccc1)C(N)=O"
numeric_value = 2.04

[[record]]
structure_as_smiles = "CCCC[C@H](NC(=O)[C@H](Cc1ccccc1)NC(=O)[C@H](Cc1cnc[nH]1)NC(=O)C[C@H](NC(=O)[C@@H](NC(=O)[C@H](C)NC(=O)[C@H](Cc1c[nH]c2ccccc12)NC(=O)[C@H](CCC(N)=O)NC(=O)[C@H](N)Cc1ccc(O)cc1)C(C)C)c1ccc(Cl)cc1)C(N)=O"
numeric_value = 2.87

[[record]]
structure_as_smiles = "CCCC[C@H](NC(=O)[C@H](Cc1ccccc1)NC(=O)[C@H](Cc1c[nH]cn1)NC(=O)C[C@@H](NC(=O)[C@@H](NC(=O)[C@H](C)NC(=O)[C@H](Cc1c[nH]c2ccccc12)NC(=O)[C@H](CCC(N)=O)NC(=O)[C@H](N)Cc1ccc(O)cc1)C(C)C)c1ccc(Cl)cc1)C(N)=O"
numeric_value = 3.27

[[record]]
structure_as_smiles = "CCCC[C@H](NC(=O)[C@H](Cc1ccccc1)NC(=O)[C@H](Cc1cnc[nH]1)NC(=O)C[C@H](NC(=O)[C@@H](NC(=O)[C@H](C)NC(=O)[C@H](Cc1c[nH]c2ccccc12)NC(=O)[C@H](CCC(N)=O)NC(=O)[C@H](N)Cc1ccc(O)cc1)C(C)C)c1cccc(Cl)c1)C(N)=O"
numeric_value = 3.40


---

Measured Ki (Bombesin receptor subtype-3 (Homo sapiens, UniProt P32247))
Square brackets hold non-standard residues; d marks the D form. Peptide text beside a SMILES is read from it. Nle = CCCC[C@H](N)C(=O)O; βAla = NCCC(=O)O
READOUT_NAME: Ki (µM)

[[record]]
molecule = "CCCC[C@H](NC(=O)[C@H](Cc1ccccc1)NC(=O)[C@H](Cc1cnc[nH]1)NC(=O)[C@@H](N)CNC(=O)[C@@H](NC(=O)[C@H](C)NC(=O)[C@H](Cc1c[nH]c2ccccc12)NC(=O)[C@H](CCC(N)=O)NC(=O)[C@H](N)Cc1ccc(O)cc1)C(C)C)C(N)=O [NSC_0]"
test_system = "Bombesin receptor subtype-3 (Homo sapiens, UniProt P32247)"
value_units = "µM"
numeric_value = 0.0023

[[record]]
molecule = "CCCC[C@H](NC(=O)[C@H](Cc1ccccc1)NC(=O)[C@H](Cc1cnc[nH]1)NC(=O)C[C@H](NC(=O)[C@@H](NC(=O)[C@H](C)NC(=O)[C@H](Cc1c[nH]c2ccccc12)NC(=O)[C@H](CCC(N)=O)NC(=O)[C@H](N)Cc1ccc(O)cc1)C(C)C)C(=O)O)C(N)=O [NSC_0]"
test_system = "Bombesin receptor subtype-3 (Homo sapiens, UniProt P32247)"
value_units = "µM"
numeric_value = 0.49

[[record]]
molecule = "CCCC[C@H](NC(=O)[C@H](Cc1ccccc1)NC(=O)[C@H](Cc1cnc[nH]1)NC(=O)CCNC(=O)[C@@H](NC(=O)[C@H](C)NC(=O)[C@H](Cc1c[nH]c2ccccc12)NC(=O)[C@H](CCC(N)=O)NC(=O)[C@H](N)Cc1ccc(O)cc1)C(C)C)C(N)=O [NSC_0] (H-[dY]QWAV[βAla]HF[Nle]-NH2)"
test_system = "Bombesin receptor subtype-3 (Homo sapiens, UniProt P32247)"
value_units = "µM"
numeric_value = 0.00082

[[record]]
molecule = "CCCC[C@H](NC(=O)[C@H](Cc1ccccc1)NC(=O)[C@H](Cc1cnc[nH]1)NC(=O)C[C@H](NC(=O)[C@@H](NC(=O)[C@H](C)NC(=O)[C@H](Cc1c[nH]c2ccccc12)NC(=O)[C@H](CCC(N)=O)NC(=O)[C@H](N)Cc1ccc(O)cc1)C(C)C)c1ccccc1Cl)C(N)=O [NSC_0]"
test_system = "Bombesin receptor subtype-3 (Homo sapiens, UniProt P32247)"
value_units = "µM"
numeric_value = 0.085

[[record]]
molecule = "CCCC[C@H](NC(=O)[C@H](Cc1ccccc1)NC(=O)[C@H](Cc1cnc[nH]1)NC(=O)[C@H](CNC(=O)[C@@H](NC(=O)[C@H](C)NC(=O)[C@H](Cc1c[nH]c2ccccc12)NC(=O)[C@H](CCC(N)=O)NC(=O)[C@H](N)Cc1ccc(O)cc1)C(C)C)NC(=O)c1ccccc1)C(N)=O [NSC_0]"
test_system = "Bombesin receptor subtype-3 (Homo sapiens, UniProt P32247)"
value_units = "µM"
numeric_value = 0.0123

[[record]]
molecule = "CCCC[C@H](NC(=O)[C@H](Cc1ccccc1)NC(=O)[C@H](Cc1cnc[nH]1)NC(=O)[C@H](CNC(=O)[C@@H](NC(=O)[C@H](C)NC(=O)[C@H](Cc1c[nH]c2ccccc12)NC(=O)[C@H](CCC(N)=O)NC(=O)[C@H](N)Cc1ccc(O)cc1)C(C)C)NC(C)=O)C(N)=O [NSC_0]"
test_system = "Bombesin receptor subtype-3 (Homo sapiens, UniProt P32247)"
value_units = "µM"
numeric_value = 0.0158


---

Molecular target: Gastrin-releasing peptide receptor (Homo sapiens) (UniProt P30550)
Sequence (P30550 whole entry, looked up): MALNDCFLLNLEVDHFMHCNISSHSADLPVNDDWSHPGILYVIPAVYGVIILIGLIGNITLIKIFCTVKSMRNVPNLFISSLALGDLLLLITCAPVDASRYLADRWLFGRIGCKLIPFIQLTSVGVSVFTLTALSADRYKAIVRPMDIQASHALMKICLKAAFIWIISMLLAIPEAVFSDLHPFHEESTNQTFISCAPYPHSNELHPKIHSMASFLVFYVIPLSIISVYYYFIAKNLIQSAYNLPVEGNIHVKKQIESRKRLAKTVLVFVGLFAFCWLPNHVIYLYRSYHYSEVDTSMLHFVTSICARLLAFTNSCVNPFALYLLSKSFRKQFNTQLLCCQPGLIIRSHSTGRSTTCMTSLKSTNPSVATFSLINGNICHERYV
pKi: −log10 of the molar value.
READOUT_NAME: pKi

[[record]]
compound = "CCCC[C@H](NC(=O)[C@H](Cc1ccccc1)NC(=O)[C@H](Cc1cnc[nH]1)NC(=O)C[C@@H](NC(=O)[C@@H](NC(=O)[C@H](C)NC(=O)[C@H](Cc1c[nH]c2ccccc12)NC(=O)[C@H](CCC(N)=O)NC(=O)[C@H](N)Cc1ccc(O)cc1)C(C)C)c1cccc(Cl)c1)C(N)=O [NSC_0]"
readout_name = "pKi"
numeric_value = 6.96


---

Measured log10(Ki) (Neuromedin-B receptor (Homo sapiens, UniProt P28336))
Square brackets hold non-standard residues; d marks the D form. Peptide text beside a SMILES is read from it. Nle = CCCC[C@H](N)C(=O)O; βAla = NCCC(=O)O
READOUT_NAME: log10(Ki) (log10 of the value in nM)

[[record]]
compound = "CSCC[C@H](NC(=O)[C@H](Cc1ccccc1)NC(=O)[C@H](Cc1cnc[nH]1)NC(=O)CNC(=O)[C@@H](NC(=O)[C@H](C)NC(=O)[C@H](Cc1c[nH]c2ccccc12)NC(=O)[C@H](CC(C)C)NC(=O)[C@H](CC(N)=O)NC(=O)CN)[C@@H](C)O)C(N)=O"
readout_name = "log10(Ki)"
numeric_value = -0.26

[[record]]
compound = "CCCC[C@H](NC(=O)[C@H](Cc1ccccc1)NC(=O)[C@H](Cc1c[nH]cn1)NC(=O)C[C@@H](NC(=O)[C@@H](NC(=O)[C@H](C)NC(=O)[C@H](Cc1c[nH]c2ccccc12)NC(=O)[C@H](CCC(N)=O)NC(=O)[C@H](N)Cc1ccc(O)cc1)C(C)C)c1ccccc1)C(N)=O"
readout_name = "log10(Ki)"
numeric_value = 3.38

[[record]]
compound = "CCCC[C@H](NC(=O)[C@H](Cc1ccccc1)NC(=O)[C@H](Cc1cnc[nH]1)NC(=O)C[C@@H](NC(=O)[C@@H](NC(=O)[C@H](C)NC(=O)[C@H](Cc1c[nH]c2ccccc12)NC(=O)[C@H](CCC(N)=O)NC(=O)[C@H](N)Cc1ccc(O)cc1)C(C)C)c1cccc(Cl)c1)C(N)=O"
readout_name = "log10(Ki)"
numeric_value = 2.92

[[record]]
compound = "CCCC[C@H](NC(=O)[C@H](Cc1ccccc1)NC(=O)[C@H](Cc1cnc[nH]1)NC(=O)CCNC(=O)[C@@H](NC(=O)[C@H](C)NC(=O)[C@H](Cc1c[nH]c2ccccc12)NC(=O)[C@H](CCC(N)=O)NC(=O)[C@H](N)Cc1ccc(O)cc1)C(C)C)C(N)=O [NSC_0] (H-[dY]QWAV[βAla]HF[Nle]-NH2)"
readout_name = "log10(Ki)"
numeric_value = 0.77

[[record]]
compound = "CCCC[C@H](NC(=O)[C@H](Cc1ccccc1)NC(=O)[C@H](Cc1cnc[nH]1)NC(=O)[C@H](CNC(=O)[C@@H](NC(=O)[C@H](C)NC(=O)[C@H](Cc1c[nH]c2ccccc12)NC(=O)[C@H](CCC(N)=O)NC(=O)[C@H](N)Cc1ccc(O)cc1)C(C)C)NC(=O)c1ccccc1)C(N)=O"
readout_name = "log10(Ki)"
numeric_value = 1.74

[[record]]
compound = "CCCC[C@H](NC(=O)[C@H](Cc1ccccc1)NC(=O)[C@H](Cc1cnc[nH]1)NC(=O)C[C@H](NC(=O)[C@@H](NC(=O)[C@H](C)NC(=O)[C@H](Cc1c[nH]c2ccccc12)NC(=O)[C@H](CCC(N)=O)NC(=O)[C@H](N)Cc1ccc(O)cc1)C(C)C)C(=O)O)C(N)=O"
readout_name = "log10(Ki)"
numeric_value = 2.63

[[record]]
compound = "CCCC[C@H](NC(=O)[C@H](Cc1ccccc1)NC(=O)[C@H](Cc1cnc[nH]1)NC(=O)C[C@@H](NC(=O)[C@@H](NC(=O)[C@H](C)NC(=O)[C@H](Cc1c[nH]c2ccccc12)NC(=O)[C@H](CCC(N)=O)NC(=O)[C@H](N)Cc1ccc(O)cc1)C(C)C)c1ccccc1Cl)C(N)=O"
readout_name = "log10(Ki)"
numeric_value = 3.84


# credit: BindingDB's records for doi:10.1124/jpet.104.066761
